B1: HDV Ribozyme (parent)
chain: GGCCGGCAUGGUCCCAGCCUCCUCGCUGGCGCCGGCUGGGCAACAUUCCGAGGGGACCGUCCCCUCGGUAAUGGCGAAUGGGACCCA

variants of: B1; assay: self-cleavage, relative activity (ratio to wild type); higher = more cleavage; co-transcriptional
# binarize self-cleavage: threshold 0.4 inclusive, high side true, low side false

The following variants have reported results that may help.
> print(dat)
                            residue.sequence  label.class
 1  GGCCGGUAUGGUCCCAGCCUCCUCGCUGGCGCCGGCUGGGCAACAUUCCGAGGGGACCGUCCCCUCGCUAAUGGCGAAUGGGACCCA [C7U G68C]         true
 2  GGCCGGCAUGGUCCCAGCCUCCUCGCUGGCGCCGGCUGGGCAACAUUCCGAGGGUACCGUCCGCUCGGUAAUGGCGAAUGGGACCCA [G55U C63G]         true
 3  GGCGGGCAUGGUCCCAGCCUCCUCGCUGGCGCCGGCUGGGUAACAUUCCGAGGGGACCGUCCCCUCGGUAAUGGCGAAUGGGACCCA [C4G C41U]        false
 4  GGCCGGCAUGGUCCCAGCCUCCUCGCUGGCGCCGGCUGGGCGACAUUCCGAGGGGACCGUCCCCUCGGUAAUAGCGAAUGGGACCCA [A42G G73A]        false
 5  CGCCGGCAUGGUCCCAGCCUCCUCGCUGGCGCCGGCUGGGCAACAUUCUGAGGGGACCGUCCCCUCGGUAAUGGCGAAUGGGACCCA [G1C C49U]        false
 6  GGCCGGCAUGGUCCCAGCCUCCUCGCUGGCGCCGGCUGGGGAACAUUCCGAGGGGAACGUCCCCUCGGUAAUGGCGAAUGGGACCCA [C41G C57A]         true
 7  GGCCGGCAUGGUCCCAGCCUCCUCGCUGGCGCCGGCUGGGCAACAUUCCGAGGGGACCGUCCCCUCGUUAAUGGCAAAUGGGACCCA [G68U G76A]         true
 8  GGCCGGCAUGGUCCCAGCCUCCUCGCUGGCGCCGGCUGGGCAAGAUUCCGAGGGGAGCGUCCCCUCGGUAAUGGCGAAUGGGACCCA [C44G C57G]         true
 9  GGCCGGCAUGGUCCCAGCCUCCUCGCUGGCUCCGGCUGGGCACCAUUCCGAGGGGACCGUCCCCUCGGUAAUGGCGAAUGGGACCCA [G31U A43C]        false
10  CGCCGGCAUGGUCCCAGCCUCCUCGCUGGCGCCGGCUGGGCAACAUUCCGAGGGGAGCGUCCCCUCGGUAAUGGCGAAUGGGACCCA [G1C C57G]        false

Q) Does the variant UGCCGGCAUGGUCUCAGCCUCCUCGCUGGCGCCGGCUGGGCAACAUUCCGAGGGGACCGUCCCCUCGGUAAUGGCGAAUGGGACCCA [G1U C14U] have recorded self-cleavage that is 0.4 or more?
A) true
